These measurements were taken from PubChem BioAssay (NCI).

# Tested on: LOX IMVI melanoma
# Assay summary: NCI tumour cell line growth inhibition, 48 h
Value kind: TGI

Here is how some compounds turned out for TGI.
CC[C@H](C)[C@H](NC(=O)C12C3C4C1C1C2C3C41NC)C(=O)N(C)[C@H](C[C@@H](OC(C)=O)c1nc(C(=O)N[C@@H](Cc2ccccc2)C[C@H](C)C(=O)OC)cs1)C(C)C (stereo not given in full): > 14.3 µM
CNC(=O)OCc1cnc([N+](=O)[O-])n1C: > 100 µM
COc1cc2c(c(OC)c1OC)-c1cc(I)c(O)cc1[C@@H](NC(C)=O)CC2: > 100 µM
ClC1=NSSC1(Cl)Cl: > 100 µM
COC(=O)C(=O)C(C(=O)C(=O)Nc1ccc([N+](=O)[O-])cc1)c1nc2ccccc2[nH]c1=O (stereo not given): > 100 µM
[Br][Pb]([c]1ccccc1)([c]1ccccc1)[c]1ccccc1: 0.299 µM
CCN(CC)CCOC(COc1cc(C)cc(C)c1)COc1cc(C)cc(C)c1: 2.73 µM
CCOC(=O)C1=C(O)CC(=O)N=C1N1CCCC1: > 100 µM

Reported TGI for O=C1C(Cl)=C(Nc2ccc(S(=O)(=O)c3ccc(NC4=C(Cl)C(=O)c5ccccc5C4=O)cc3)cc2)C(=O)c2ccccc21 was 3.1 µM

Reported TGI for CCOc1ccc2nc(NC(=O)C(=O)C3C(=O)C(CC4C(=O)c5ccccc5C4=O)C(=O)CC3(C)C)sc2c1 (stereo not given) was > 100 µM

----------
# Test system: CCRF-CEM leukemia
# Assay summary: NCI tumour cell line growth inhibition, 48 h
Value kind: TGI

Reported TGI for O=C1C(Cl)=C(Nc2ccc(S(=O)(=O)c3ccc(NC4=C(Cl)C(=O)c5ccccc5C4=O)cc3)cc2)C(=O)c2ccccc21 was > 100 µM

Reported TGI for COc1cc(/C=C(\C)[N+](=O)[O-])cc(OC)c1 was 5.77 µM

Reported TGI for C[C@]12CC[C@H]3[C@@H](CC=C4C[C@@H](O)CC[C@@]43C)[C@@H]1C/C(=C\c1cccnc1)[C@@H]2O was > 100 µM

Reported TGI for CC(C)(C)N/N=C(/Cc1nc2c3c(ccc2[nH]c1=O)C(=O)c1ccccc1C3=O)C(=O)NC1=C(Cl)C(=O)c2ccccc2C1=O was > 100 µM

Reported TGI for CC(=O)ON(OCc1ccc2ccccc2c1)C(C)=O was > 100 µM

Reported TGI for [CH3][Sn]([CH3])([CH3])[S]C(=S)N1CCOCC1 was 1.67 µM

Reported TGI for CCOC(=O)C1=C(O)CC(=O)N=C1N1CCCC1 was > 100 µM

Reported TGI for COc1cc(-c2nc(-c3ccccc3)c(-c3ccccc3)[nH]2)cc(OC)c1O was 70.4 µM

Reported TGI for CCn1cc(C(=O)O)c(=O)c2cc(F)c(N3CCN(S(=O)(=O)c4ccc(Cl)cc4Cl)CC3)cc21 was > 100 µM

Reported TGI for C[N+](C)(CCNc1ccc(NCC[N+](C)(C)Cc2ccc([N+](=O)[O-])cc2)c2c1C(=O)c1c(O)ccc(O)c1C2=O)Cc1ccc([N+](=O)[O-])cc1 was > 50 µM

Reported TGI for COc1ccc(-c2nc3ccccc3c(=O)[nH]2)cc1 was > 100 µM

----------
TGI: recorded values
# System: SN12C renal
# Assay summary: NCI tumour cell line growth inhibition, 48 h

Here is how some compounds turned out for TGI.
CC1[C@@]2(CCC(C)(C)O2)O[C@@H]2C=C3C4CCC5Cc6nc7c(nc6C[C@@]5(C)C4C[C@H](O)[C@@]3(C)[C@]12O)CC1CCC2C3=C[C@H]4O[C@@]5(O[C@@](C)(CO)C[C@@H]5O)C(C)[C@@]4(O)[C@]3(C)[C@@H](O)CC2[C@]1(C)C7 (stereo partly specified): 1.19 µM
COC(=O)C1=NC(=S)NC(c2ccccc2)C1c1nc2ccccc2o1 (stereo unspecified): > 50 µM
O=C(NNC(=O)c1ccco1)c1ccco1: > 100 µM
C=C1OC2OC(C)C(NC(=O)OCC(Cl)(Cl)Cl)C(OC(C)=O)C2O1 (stereo unspecified): > 100 µM
COc1ccc(/C=C/C(=O)c2c(-c3ccccc3)nn(C)c(=O)c2N2CC2C)cc1 (stereo unspecified): > 100 µM
COC(=O)[C@@H]1c2c(oc3cc(CO)cc(O)c3c2=O)C=C[C@H]1O: 23.6 µM
CCOC(=O)[C@@]12C[C@](/C=C/OC)(O[Si](C)(C)C)[C@@]13c1cc(OC)c(OC)cc1CCN3C(=O)C2=O: > 100 µM
CC(=O)OCC1OC(OCCCOP(=O)(OCCC#N)OCC2OC(n3cnc4c(N)ncnc43)C(OC(=O)c3ccccc3)C2OC(=O)c2ccccc2)C(OC(C)=O)C(OC(C)=O)C1OC(C)=O (stereo unspecified): > 100 µM
COC(=O)c1ccccc1C1CN=NC12Cc1ccc(C)cc1C2=O (stereo unspecified): > 100 µM
Cn1cc(-c2cc(-c3cn(C)c4ccccc34)[nH]n2)c2ccccc21: 23.1 µM

Here is another compound to look at.
Reported TGI for Clc1ccc(C=Nc2ccc(-c3nc4ccccc4[nH]3)cc2)cc1 was > 100 µM
